target_desc: HIV-1 reverse transcriptase (HIV-1, UniProt P04585;P04585 P04585:588-1147,P04585:588-1027)
method_notes: inhibition; Ki' for RNA-dependent DNA polymerase activity
condition: tags: overexpressed in E. coli, purified per Davies et al. 1991; label: 5'-32P; internal loop AA opposite A
pKi: −log10 of the molar value.

# binder, pKi
records = [
    ("RT36 (ssDNA) DNA: ATCCGCCTGATTAGCGATACTAAGCTCTTAGTTGATGCGCGGTCAAAATTTAAGCTACTTGAGCAAAATCACCTGCAGGGG", 8.19),
]

The values you see were collected from patent US5503978.
